# tested.system: human TREM2 extracellular domain (ECD) (Homo sapiens, UniProt Q9NZC2)
# Sequence (Q9NZC2 19-174): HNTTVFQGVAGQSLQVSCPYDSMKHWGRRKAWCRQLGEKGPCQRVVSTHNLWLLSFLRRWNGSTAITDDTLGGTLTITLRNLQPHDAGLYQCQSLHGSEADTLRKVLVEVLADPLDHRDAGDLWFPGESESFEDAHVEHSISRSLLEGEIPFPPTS
property: binding result

1. R18-11-12 (antibody, V domains shown) VH: AVQLVESGGGLVQPKESVKISCAASGFTFSNAAMYWVRQAPGKGLEWIARIRSKPHNHATYYADSVKGRFTISRDDSESMVYLQMDNLKTEDTAMYYCTSDTGPNWFTYWGQGTLVTVSS VL: DIVMTQSPSSLAVSAGETVTIDCKSSQSLLYSGNQKTYLAWYQQKPGQSPKLLIYWASTRQSGVPDRFIGSGSGTDFTLTISSVQAEDLAIYYCQQYYDTPLTFGSGTKLEIK : binds
2. R18-12-14 (antibody, V domains shown) VH: AVQLVESGGGLVQPKESLKISCAVSGFTFTNAAMYWVRQAPGKGLEWIARIRTQPNNYATYYADSVRGRFTTSRDDSKSMVYLQMDNLKTEDTAMYYCTAGRATGTPFDYWGQGVMVTVSS VL: DIVMTQSPSSLAVSAGETVTIDCKSSQSLLYSGNQKTYLAWYQQKPGQSPKLLIYWASTRQSGVPDRFIGSGSGTDFTLTISSVQAEDLAIYYCQQYYDTPLTFGSGTKLEIK : binds
3. R18-12-17 (antibody, V domains shown) VH: AVQLVESGGGLVKPKESLKISCAASGFTFSNAAMYWVRQAPGKGLDWVARIRTKPYNYATFYADSVKGRFTISRDDSKNMVYLQMDNLKTEDTAVYYCTTDGEPRPRFAYWGQGTLVTVSS VL: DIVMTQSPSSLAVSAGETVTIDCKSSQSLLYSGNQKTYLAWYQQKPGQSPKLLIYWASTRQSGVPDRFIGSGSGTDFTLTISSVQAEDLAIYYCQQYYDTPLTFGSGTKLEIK : binds
